Cited source: the supplement of paper PMC11908140

B1: library; numbered along this chain (parent)
chain: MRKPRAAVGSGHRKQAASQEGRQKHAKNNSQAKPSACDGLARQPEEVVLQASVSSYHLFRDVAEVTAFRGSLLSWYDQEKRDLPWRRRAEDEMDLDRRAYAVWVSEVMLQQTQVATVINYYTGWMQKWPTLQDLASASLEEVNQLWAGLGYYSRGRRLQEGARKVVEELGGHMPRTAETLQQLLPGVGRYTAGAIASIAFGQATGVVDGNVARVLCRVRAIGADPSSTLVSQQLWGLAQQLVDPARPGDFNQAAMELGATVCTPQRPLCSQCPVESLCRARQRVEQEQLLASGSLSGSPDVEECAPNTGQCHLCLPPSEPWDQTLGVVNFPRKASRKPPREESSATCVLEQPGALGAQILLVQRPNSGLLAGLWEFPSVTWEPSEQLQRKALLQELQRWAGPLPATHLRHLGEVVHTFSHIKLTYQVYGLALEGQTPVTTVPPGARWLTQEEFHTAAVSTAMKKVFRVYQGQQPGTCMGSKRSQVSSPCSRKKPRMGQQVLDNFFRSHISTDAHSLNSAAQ

Variants of: B1
Test: 8OG:A repair function score (normalized; synonymous = 0, nonsense = -1) (normalized log-likelihood score); higher = more repair activity (WT-like);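 also: cells sorted at 72 h after reporter transfection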
Details: with 8OG:A DNA repair reporter (GFP) in HEK-293 MUTYH KO cells
MEASURED_QUANTITY: 8OG:A repair function score

Example variants with recorded 8OG:A repair function score:
Q159G : -0.279
Q310Y : -0.0597
R398E : -0.407
V104P : -1.01
E413A : -0.0523

*Q* I'd like to know its 8OG:A repair function score. The variant in question is S483P
*A* 0.0199

*Q* I'd like to know its 8OG:A repair function score. The variant in question is Q113T
*A* 0.157

*Q* I'd like to know its 8OG:A repair function score. The variant in question is V465F
*A* -0.73

*Q* I'd like to know its 8OG:A repair function score. The variant in question is Q233G
*A* -0.0523

*Q* I'd like to know its 8OG:A repair function score. The variant in question is C477N
*A* 0.0283

*Q* I'd like to know its 8OG:A repair function score. The variant in question is S459V
*A* -0.746

*Q* I'd like to know its 8OG:A repair function score. The variant in question is D77V
*A* -0.0835

*Q* I'd like to know its 8OG:A repair function score. The variant in question is W235Y
*A* -0.177

*Q* I'd like to know its 8OG:A repair function score. The variant in question is D208Y
*A* -1.01

*Q* I'd like to know its 8OG:A repair function score. The variant in question is Q271L
*A* -0.00321

*Q* I'd like to know its 8OG:A repair function score. The variant in question is V327K
*A* -0.459

*Q* I'd like to know its 8OG:A repair function score. The variant in question is E433T
*A* -0.00904

*Q* I'd like to know its 8OG:A repair function score. The variant in question is A196E
*A* -0.674

*Q* I'd like to know its 8OG:A repair function score. The variant in question is G401S
*A* -0.0552

*Q* I'd like to know its 8OG:A repair function score. The variant in question is H312M
*A* -0.0518

*Q* I'd like to know its 8OG:A repair function score. The variant in question is P264C
*A* -0.102

*Q* I'd like to know its 8OG:A repair function score. The variant in question is G248T
*A* -0.939

*Q* I'd like to know its 8OG:A repair function score. The variant in question is A51G
*A* -0.0113

*Q* I'd like to know its 8OG:A repair function score. The variant in question is E167Y
*A* 0.0239

*Q* I'd like to know its 8OG:A repair function score. The variant in question is Y469S
*A* -0.115

*Q* I'd like to know its 8OG:A repair function score. The variant in question is T460I
*A* -0.102
